Data export: IC50 values recorded with C-C chemokine receptor type 5 (Homo sapiens, UniProt P51681).
Sequence (P51681 whole entry): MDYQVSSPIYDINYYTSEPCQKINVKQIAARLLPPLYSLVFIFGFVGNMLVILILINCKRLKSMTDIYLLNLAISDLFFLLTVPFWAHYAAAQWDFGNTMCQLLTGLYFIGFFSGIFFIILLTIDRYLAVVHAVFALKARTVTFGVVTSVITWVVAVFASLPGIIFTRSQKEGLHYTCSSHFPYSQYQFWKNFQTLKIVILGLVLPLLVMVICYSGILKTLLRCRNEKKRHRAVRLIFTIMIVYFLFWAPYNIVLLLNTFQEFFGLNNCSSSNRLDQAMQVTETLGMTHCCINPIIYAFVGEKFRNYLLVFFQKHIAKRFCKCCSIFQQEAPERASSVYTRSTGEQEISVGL
Field: value (include unit after the number)

Here's what some known entries look like.
Which IC50 value belongs to CC(C)[C@H](C(=O)O)N1C[C@H](CN2CCC(c3ccc(F)cc3)CC2)[C@@H](c2ccccc2)C1 ?
36 nM

Entry O=C(O)[C@@H](C1CCCCC1)N1C[C@H](CN2CCC(c3ccc(F)cc3)CC2)[C@@H](c2ccccc2)C1 has what IC50?
4 nM

// lookup IC50 for CC(C)[C@H](C(=O)O)N1C[C@H](CN2CCC(CCCc3ccccc3)CC2)[C@@H](c2ccccc2)C1
0.7 nM

Value lookup for IC50; key = O=C(OCc1ccccc1)[C@H](C1CCCCC1)N1C[C@H](CN2CCC(O)(CCCc3ccccc3)CC2)[C@@H](c2ccccc2)C1
24 nM

I would be grateful if you could share the reported IC50 for O=C(O)[C@@H](CC1CC1)N1C[C@H](CN2CCC(CCCc3ccccc3)CC2)[C@@H](c2ccccc2)C1 .
0.1 nM

Value sought for every listed compound: IC50.
1. O=C(O)[C@H](C1CCCCC1)N1C[C@H](CN2CCC(O)(CCCc3ccccc3)CC2)[C@@H](c2ccccc2)C1
2. OC[C@@H](C1CCCCC1)N1C[C@H](CN2CCC(O)(CCCc3ccccc3)CC2)[C@@H](c2ccccc2)C1
3. O=C(O)[C@@H](C1CC1)N1C[C@H](CN2CCC(CCCc3ccccc3)CC2)[C@@H](c2ccccc2)C1

1: 5 nM; 2: 1 nM; 3: 3 nM
